Measurement Target: Bcl-2 (UniProt P10415 1-239)
Assay Remarks: fluorescence polarisation
Measure Name: Kd (nM)
Expressed in nM, but write only the number.

## Task Record request: Kd value, item Ac-IWIAQELRRIGDEFNAYY-NH2 (also: fluoresceinated, site not given here) [18-residue fluoresceinated Bim BH3 peptide]
## Result 5
